# System: RT-112
# Assay remarks: cells
# Format: functional, cell-based, Homo sapiens
# Experimental conditions: Homo sapiens, RT-112
# Description: SANGER: Inhibition of human RT-112 cell growth in a cell viability assay.
pIC50: −log10 of the molar value.
Form field: pIC50 (one value per entry).

Solved cases below.
CC(=O)O[C@@H]1[C@@H](OC(C)=O)[C@@H](O)[C@H](Oc2c(-c3ccc(O)cc3)oc3cc(O)cc(O)c3c2=O)O[C@H]1C < 5.00
Cn1cc(C2=C(c3ccc(Cl)cc3Cl)C(=O)NC2=O)c2ccccc21 < 5.00
CCOc1nc(NC(=O)Cc2cc(OC)ccc2OC)cc(N)c1C#N < 5.00
Cc1cnc(-c2cnc(NCCNc3ccc(C#N)cn3)nc2-c2ccc(Cl)cc2Cl)[nH]1 < 5.59

Next, consider the following compound.
Dear colleague, please send me the reported pIC50 for `O=C1N=C(NCc2cccs2)S/C1=C\c1ccc2ncccc2c1` when you can.
< 5.30

----------
# Tested on: 786-0
# Assay remarks: cells
# Type: functional, cell-based, Homo sapiens
# Experimental conditions: Homo sapiens
# Description: SANGER: Inhibition of human 786-0 cell growth in a cell viability assay.
Form field: IC50 (one value per entry).

Solved cases below.
Compound	Result
COc1ccc(-c2ccc3c(N4CCOC[C@@H]4C)nc(N4CCOC[C@@H]4C)nc3n2)cc1CO [AZD-8055]	1090 nM
O=C(c1cc(Cc2n[nH]c(=O)c3ccccc23)ccc1F)N1CCN(C(=O)C2CC2)CC1 [OLAPARIB]	> 5000 nM
CC(=O)O[C@@H]1[C@@H](OC(C)=O)[C@@H](O)[C@H](Oc2c(-c3ccc(O)cc3)oc3cc(O)cc(O)c3c2=O)O[C@H]1C	> 10000 nM
CC(=O)O[C@@]12CO[C@@H]1C[C@H](O)[C@@]1(C)C(=O)[C@H](O)C3=C(C)[C@@H](OC(=O)[C@H](O)[C@@H](NC(=O)OC(C)(C)C)c4ccccc4)C[C@@](O)([C@@H](OC(=O)c4ccccc4)[C@H]21)C3(C)C [DOCETAXEL]	7.86 nM

Dear colleague, please send me the reported IC50 for COc1ccc(C2=N[C@@H](c3ccc(Cl)cc3)[C@@H](c3ccc(Cl)cc3)N2C(=O)N2CCNC(=O)C2)c(OC(C)C)c1 [NUTLIN-3] when you can.
> 8000 nM

Dear colleague, please send me the reported IC50 for C=CCNC1=C2C[C@@H](C)C[C@H](OC)[C@H](O)[C@@H](C)/C=C(\C)[C@H](OC(N)=O)[C@@H](OC)/C=C\C=C(/C)C(=O)NC(=CC1=O)C2=O [TANESPIMYCIN] when you can.
154 nM

----------
Form field: IC50 (one value per entry).
# Test system: MC-IXC;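 note: growth inhibition of MC-IXC cells, read out with a cell viability assay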
# Assay remarks: cells
# Format: functional, cell-based, Homo sapiens
# Experimental conditions: Homo sapiens, MC-IXC
# Description: SANGER: Inhibition of human MC-IXC cell growth in a cell viability assay.

C=CCc1cccc(/C=N/NC(=O)CN2CCN(Cc3ccccc3)CC2)c1O > 2.56 µM
Cn1cc(C2=C(c3ccc(Cl)cc3Cl)C(=O)NC2=O)c2ccccc21 > 10 µM

Next, consider the following compound.
Dear colleague, please send me the reported IC50 for `O=C1N=C(NCc2cccs2)S/C1=C\c1ccc2ncccc2c1` when you can.
> 5 µM

----------
Form field: pIC50 (one value per entry).
# Tested on: SW-620;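 note: growth inhibition of human SW-620 cells, measured by a cell viability assay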
# Assay remarks: cells
# Format: functional, cell-based, Homo sapiens
# Experimental conditions: Homo sapiens, SW-620
# Description: SANGER: Inhibition of human SW620 cell growth in a cell viability assay.
pIC50: −log10 of the molar value.

Compound	pIC50
O=c1cc(-c2cccc3c2Sc2ccccc2S3)oc(N2CCOCC2)c1 [KU-55933]	< 5.00
CN(C)C/C=C/C(=O)Nc1cc2c(Nc3ccc(F)c(Cl)c3)ncnc2cc1O[C@H]1CCOC1 [AFATINIB]	< 6.30

Next, consider the following compound.
Fill in: pIC50 on SW-620, entry COc1ccc(-c2ccc3c(N4CCOC[C@@H]4C)nc(N4CCOC[C@@H]4C)nc3n2)cc1CO [AZD-8055]
< 5.70

----------
# Test system: SW1710;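 note: growth inhibition of SW1710 cells, determined with a cell viability assay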
# Assay remarks: cells
# Assay type: functional, cell-based, Homo sapiens
# Experimental conditions: Homo sapiens, SW1710
# Description: SANGER: Inhibition of human SW1710 cell growth in a cell viability assay.
pIC50: −log10 of the molar value.
Quantity kind: pIC50

Compound	Quantity kind	Result
CCOc1nc(NC(=O)Cc2cc(OC)ccc2OC)cc(N)c1C#N	pIC50	< 5.00
CC(=O)O[C@@H]1[C@@H](OC(C)=O)[C@@H](O)[C@H](Oc2c(-c3ccc(O)cc3)oc3cc(O)cc(O)c3c2=O)O[C@H]1C	pIC50	< 5.00
CN(C)C/C=C/C(=O)Nc1cc2c(Nc3ccc(F)c(Cl)c3)ncnc2cc1O[C@H]1CCOC1 [AFATINIB]	pIC50	< 6.30

Next, consider the following compound.
Dear colleague, please send me the reported pIC50 for C=CCc1cccc(/C=N/NC(=O)CN2CCN(Cc3ccccc3)CC2)c1O [PAC-1] when you can.
< 5.59

----------
Form field: IC50 (one value per entry).
# System: NCI-H1522
# Assay remarks: cells
# Assay type: functional, cell-based
# Experimental conditions: Homo sapiens
# Description: SANGER: Inhibition of human NCI-H1522 cell growth in a cell viability assay.

Solved cases below.
Compound	Tested target	IC50
Cc1cc(Nc2cc(N3CCN(C)CC3)nc(Sc3ccc(NC(=O)C4CC4)cc3)n2)n[nH]1 [TOZASERTIB]	NCI-H1522	> 2 µM
Cn1cncc1[C@@](N)(c1ccc(Cl)cc1)c1ccc2c(c1)c(-c1cccc(Cl)c1)cc(=O)n2C [TIPIFARNIB]	NCI-H1522	> 16 µM
CN1CCN(CCOc2cc(OC3CCOCC3)c3c(Nc4c(Cl)ccc5c4OCO5)ncnc3c2)CC1 [SARACATINIB]	NCI-H1522	> 2 µM

Dear colleague, please send me the reported IC50 for C=C1C(=O)O[C@@H]2C3O[C@]3(C)CC/C=C(\C)CC[C@@H]12 (some centres undefined) when you can.
> 5 µM

----------
# Tested on: SF-126
# Assay remarks: cells
# Format: functional, cell-based, Homo sapiens
# Experimental conditions: Homo sapiens, SF-126
# Description: SANGER: Inhibition of human SF126 cell growth in a cell viability assay.
Form field: IC50 (one value per entry).

Compound	Result
O=C(NOCC1CC1)c1ccc(F)c(F)c1Nc1ccc(I)cc1Cl [CI-1040]	> 10 µM
CCc1nc(N)nc(N)c1-c1ccc(Cl)cc1 [PYRIMETHAMINE]	> 20 µM
C=CCNC1=C2C[C@@H](C)C[C@H](OC)[C@H](O)[C@@H](C)/C=C(\C)[C@H](OC(N)=O)[C@@H](OC)/C=C\C=C(/C)C(=O)NC(=CC1=O)C2=O [TANESPIMYCIN]	> 1 µM
CCC1=C[C@@H]2CN(C1)Cc1c([nH]c3ccccc13)[C@@](C(=O)OC)(c1cc3c(cc1OC)N(C)[C@H]1[C@@](O)(C(=O)OC)[C@H](OC(C)=O)[C@]4(CC)C=CCN5CC[C@]31[C@@H]54)C2 [VINORELBINE]	> 0.064 µM
CN(Cc1cnc2nc(N)nc(N)c2n1)c1ccc(C(=O)N[C@@H](CCC(=O)O)C(=O)O)cc1 [METHOTREXATE]	> 0.2 µM
CN(c1ncccc1CNc1nc(Nc2ccc3c(c2)CC(=O)N3)ncc1C(F)(F)F)S(C)(=O)=O [PF-00562271]	> 2.56 µM

Next, consider the following compound.
Dear colleague, please send me the reported IC50 for CS(=O)(=O)CCNCc1ccc(-c2ccc3ncnc(Nc4ccc(OCc5cccc(F)c5)c(Cl)c4)c3c2)o1 [LAPATINIB] when you can.
> 2 µM

----------
Form field: pIC50 (one value per entry).
# Tested on: D-392MG
# Assay remarks: cells
# Assay type: functional, cell-based, Homo sapiens
# Experimental conditions: Homo sapiens, D-392MG
pIC50: −log10 of the molar value.

Compound	pIC50
CN(Cc1cnc2nc(N)nc(N)c2n1)c1ccc(C(=O)N[C@@H](CCC(=O)O)C(=O)O)cc1 [METHOTREXATE]	6.80
CC(=O)O[C@@]12CO[C@@H]1C[C@H](O)[C@@]1(C)C(=O)[C@H](O)C3=C(C)[C@@H](OC(=O)[C@H](O)[C@@H](NC(=O)OC(C)(C)C)c4ccccc4)C[C@@](O)([C@@H](OC(=O)c4ccccc4)[C@H]21)C3(C)C	< 8.00

Dear colleague, please send me the reported pIC50 for `CC(=O)O[C@@H]1[C@@H](OC(C)=O)[C@@H](O)[C@H](Oc2c(-c3ccc(O)cc3)oc3cc(O)cc(O)c3c2=O)O[C@H]1C` when you can.
< 5.00

----------
# Tested on: MEL-HO
# Assay remarks: cells
# Type: functional, cell-based, Homo sapiens
# Experimental conditions: Homo sapiens, MEL-HO
# Description: SANGER: Inhibition of human MEL-HO cell growth in a cell viability assay.
Form field: IC50 (one value per entry).

Molecule	Result
Nc1ccn([C@@H]2O[C@H](CO)[C@@H](O)[C@@H]2O)c(=O)n1 [CYTARABINE]	> 2 µM

Dear colleague, please send me the reported IC50 for CN(C)C/C=C/C(=O)Nc1cc2c(Nc3ccc(F)c(Cl)c3)ncnc2cc1O[C@H]1CCOC1 [AFATINIB] when you can.
> 0.5 µM

Dear colleague, please send me the reported IC50 for `O=C1N=C(NCc2cccs2)S/C1=C\c1ccc2ncccc2c1` when you can.
> 5 µM

Source: ChEMBL document CHEMBL1201861
